Ref: paper PMC9727182

Form field: Stability RSD (one value per entry).
Test: Stability in diluted SI at room temperature
Details: analyzed at 0, 2, 4, 8, 12, 24, and 48 h

Record excerpt, results attached:
compound | Stability RSD
O=c1c(O)c(-c2ccc(O)c(O)c2)oc2cc(O)cc(O)c12 | 2.51%
C[C@@H]1O[C@@H](OC[C@H]2O[C@@H](Oc3c(-c4ccc(O)c(O)c4)oc4cc(O)cc(O)c4c3=O)[C@H](O)[C@@H](O)[C@@H]2O)[C@H](O)[C@H](O)[C@H]1O | 2.31%
Nc1ccn([C@@H]2O[C@H](CO)[C@@H](O)[C@H]2O)c(=O)n1 | 1.85%
COc1cc(/C=C/CO)cc(OC)c1O[C@@H]1O[C@H](CO)[C@@H](O)[C@H](O)[C@H]1O | 2.76%
O=C(O)/C=C/c1ccc(O)cc1 | 3.29%

Req: Answer with the recorded Stability RSD of Nc1ncnc2c1ncn2[C@@H]1O[C@H](CO)[C@@H](O)[C@H]1O only.
Resp: 2.74%

* * *

Assay: Stability of 6 compounds of SI in rat plasma
Settings: rat plasma, spiked 10000 ng/mL
Below, each entry is listed with its recorded 6h at room temperature RE.
Report the value in % with no unit label.

Req: Give a short answer stating reported 6h at room temperature RE for O=C(O)/C=C/c1ccc(O)cc1 .
Resp: -2.72

Req: State its 6h at room temperature RE: COc1cc(/C=C/CO)cc(OC)c1O[C@@H]1O[C@H](CO)[C@@H](O)[C@H](O)[C@H]1O
Resp: 1.55

Req: Entry O=Cc1ccc(O)cc1 [p-HBA, p-hydroxybenzaldehyde] needs its 6h at room temperature RE filled in; supply it.
Resp: -3.91

Req: # return recorded 6h at room temperature RE for input C[C@@H]1O[C@@H](OC[C@H]2O[C@@H](Oc3c(-c4ccc(O)c(O)c4)oc4cc(O)cc(O)c4c3=O)[C@H](O)[C@@H](O)[C@@H]2O)[C@H](O)[C@H](O)[C@H]1O
Resp: -3.71

Req: Indicate its recorded 6h at room temperature RE; the compound in question is O=C(O)[C@H]1O[C@@H](Oc2cc3oc(-c4ccc(O)cc4)cc(=O)c3c(O)c2O)[C@H](O)[C@@H](O)[C@@H]1O
Resp: -2.06

* * *

Test: Stability of 6 compounds of SI in rat plasma
Conditions: rat plasma, spiked 40 ng/mL
Protocol: The LC-MS method was validated by linearity, limits of detection (LOD), limits of quantification (LOQ), precision, accuracy, extraction recovery, matrix effect and stability of the 6 ingredients in rat plasma. […] Intra- and inter-day accuracy and precision were assessed by detecting quality control (QC) samples using five replicates of rat samples at three concentration levels on one or three validation days, respectively. […]
recorded.endpoint: Long-term stability (-80℃,15 days) RE (%)
Please respond with the number in % and leave the unit unwritten.

Field: example entries. Status: answers known.
compound | Long-term stability (-80℃,15 days) RE, %
COc1cc(/C=C/CO)cc(OC)c1O[C@@H]1O[C@H](CO)[C@@H](O)[C@H](O)[C@H]1O [SYR, syringin] | -9.50
C[C@@H]1O[C@@H](OC[C@H]2O[C@@H](Oc3c(-c4ccc(O)c(O)c4)oc4cc(O)cc(O)c4c3=O)[C@H](O)[C@@H](O)[C@@H]2O)[C@H](O)[C@H](O)[C@H]1O [RU, rutin] | 7.00
O=Cc1ccc(O)cc1 [p-HBA, p-hydroxybenzaldehyde] | 14.50

Shift focus to the following entry.
Req: Identify measured Long-term stability (-80℃,15 days) RE corresponding to O=C(O)[C@H]1O[C@@H](Oc2cc3oc(-c4ccc(O)cc4)cc(=O)c3c(O)c2O)[C@H](O)[C@@H](O)[C@@H]1O [SCU, scutellarin]
Resp: 6.00

* * *

Assay: Multicomponent pharmacokinetics in rat plasma after i.v. safflower injection (SI)
Conditions: male, Sprague-Dawley, rat, plasma, iv, 1 ml/kg
recorded.endpoint: AUC(0-inf) (µg·h/mL)
Form entry: value (µg·h/mL) — number only.

Req: Using the record for O=C(O)/C=C/c1ccc(O)cc1 , state its measured AUC(0-inf).
Resp: 0.0677

* * *

Test: Multicomponent pharmacokinetics in rat plasma after i.v. safflower injection (SI)
Details: male, Sprague-Dawley, rat, in vivo, iv, 4 ml/kg
recorded.endpoint: half-life
Answers without a unit are incomplete; give the number and then its unit.

Req: Provide measured half-life value, entry: COc1cc(/C=C/CO)cc(OC)c1O[C@@H]1O[C@H](CO)[C@@H](O)[C@H](O)[C@H]1O
Resp: 31.8 min

* * *

Assay: Multicomponent pharmacokinetics in rat plasma after i.v. safflower injection (SI)
Settings: male, Sprague-Dawley, rat, plasma, iv, 2 ml/kg
recorded.endpoint: clearance (mL/min/kg)
Give the quantity in mL/min/kg, number only.

Solved entries:
compound | assay.value
O=C(O)/C=C/c1ccc(O)cc1 [p-CA, p-coumaric acid] | 6.67
O=Cc1ccc(O)cc1 [p-HBA, p-hydroxybenzaldehyde] | 8.83

Switching to the query record.
Req: Return clearance (reported value) for this compound: O=C(O)[C@H]1O[C@@H](Oc2cc3oc(-c4ccc(O)cc4)cc(=O)c3c(O)c2O)[C@H](O)[C@@H](O)[C@@H]1O [SCU, scutellarin]
Resp: 0.167

* * *

Assay: Multicomponent pharmacokinetics in rat plasma after i.v. safflower injection (SI)
Conditions: male, Sprague-Dawley, rat, plasma, iv, 4 ml/kg
The entries below come with measured Cmax values attached.
Lab book: enter the figure in ng/mL, no units written.

Solved cases (3 shown):
compound | Cmax, ng/mL
C[C@@H]1O[C@@H](OC[C@H]2O[C@@H](Oc3c(-c4ccc(O)c(O)c4)oc4cc(O)cc(O)c4c3=O)[C@H](O)[C@@H](O)[C@@H]2O)[C@H](O)[C@H](O)[C@H]1O | 39.3
O=C(O)/C=C/c1ccc(O)cc1 | 1260
O=C(O)[C@H]1O[C@@H](Oc2cc3oc(-c4ccc(O)cc4)cc(=O)c3c(O)c2O)[C@H](O)[C@@H](O)[C@@H]1O | 327

In the following, a different compound is considered.
Req: State, in one line, measured Cmax of O=Cc1ccc(O)cc1 [p-HBA, p-hydroxybenzaldehyde]
Resp: 74.3

* * *

Experiment: Multicomponent pharmacokinetics in rat plasma after i.v. safflower injection (SI)
Settings: male, Sprague-Dawley, rat, in vivo, iv, 4 ml/kg
recorded.endpoint: AUC(0-inf) (ng·h/mL)
Your answer should be a plain number; it is taken to be in ng·h/mL.

Req: Let me know recorded AUC(0-inf) for COc1cc(/C=C/CO)cc(OC)c1O[C@@H]1O[C@H](CO)[C@@H](O)[C@H](O)[C@H]1O [SYR, syringin] , thanks.
Resp: 592

* * *

Assay: Multicomponent pharmacokinetics in rat plasma after i.v. safflower injection (SI)
Conditions: male, Sprague-Dawley, rat, plasma, iv, 1 ml/kg
recorded.endpoint: AUC(0-t) (ng·h/mL)
# number only, unit ng·h/mL dropped from output

Req: State its AUC(0-t) for this compound: O=C(O)/C=C/c1ccc(O)cc1 [p-CA, p-coumaric acid]
Resp: 62.5

* * *

Assay: Stability of 6 compounds of SI in rat plasma
Conditions: rat plasma, spiked 10000 ng/mL
Protocol: The LC-MS method was validated by linearity, limits of detection (LOD), limits of quantification (LOQ), precision, accuracy, extraction recovery, matrix effect and stability of the 6 ingredients in rat plasma. […] Intra- and inter-day accuracy and precision were assessed by detecting quality control (QC) samples using five replicates of rat samples at three concentration levels on one or three validation days, respectively. […]
recorded.endpoint: Freeze-thaw stability (three cycles) RE (%)
Response body: numeric value in %, unit text excluded.

compound | Freeze-thaw stability (three cycles) RE [%]
O=C(O)[C@H]1O[C@@H](Oc2cc3oc(-c4ccc(O)cc4)cc(=O)c3c(O)c2O)[C@H](O)[C@@H](O)[C@@H]1O [SCU, scutellarin] | -5.21
O=C(O)/C=C/c1ccc(O)cc1 [p-CA, p-coumaric acid] | -1.55
COc1cc(/C=C/CO)cc(OC)c1O[C@@H]1O[C@H](CO)[C@@H](O)[C@H](O)[C@H]1O [SYR, syringin] | 2.30

Req: For the compound O=Cc1ccc(O)cc1 [p-HBA, p-hydroxybenzaldehyde] , give its reported Freeze-thaw stability (three cycles) RE.
Resp: -3.10

Req: Hello, please tell me recorded Freeze-thaw stability (three cycles) RE for this one: C[C@@H]1O[C@@H](OC[C@H]2O[C@@H](Oc3c(-c4ccc(O)c(O)c4)oc4cc(O)cc(O)c4c3=O)[C@H](O)[C@@H](O)[C@@H]2O)[C@H](O)[C@H](O)[C@H]1O [RU, rutin]
Resp: 0.09

* * *

Assay: Multicomponent pharmacokinetics in rat plasma after i.v. safflower injection (SI)
Settings: male, Sprague-Dawley, rat, plasma, iv, 2 ml/kg
recorded.endpoint: MRT inf (min)
Only the number, expressed in min, is required.

Known results for compounds:
compound | assay.value
O=C(O)/C=C/c1ccc(O)cc1 | 19.8
O=Cc1ccc(O)cc1 [p-HBA, p-hydroxybenzaldehyde] | 40.2

Now consider a different compound.
Req: Specify reported MRT inf for the compound shown: O=C(O)[C@H]1O[C@@H](Oc2cc3oc(-c4ccc(O)cc4)cc(=O)c3c(O)c2O)[C@H](O)[C@@H](O)[C@@H]1O
Resp: 174
